# credit: paper PMC6085107

molecular target: His-nNOS_(1-299) (UniProt P29476-1 1-299); assay: AlphaScreen or HTRF
Sequence (P29476 1-299): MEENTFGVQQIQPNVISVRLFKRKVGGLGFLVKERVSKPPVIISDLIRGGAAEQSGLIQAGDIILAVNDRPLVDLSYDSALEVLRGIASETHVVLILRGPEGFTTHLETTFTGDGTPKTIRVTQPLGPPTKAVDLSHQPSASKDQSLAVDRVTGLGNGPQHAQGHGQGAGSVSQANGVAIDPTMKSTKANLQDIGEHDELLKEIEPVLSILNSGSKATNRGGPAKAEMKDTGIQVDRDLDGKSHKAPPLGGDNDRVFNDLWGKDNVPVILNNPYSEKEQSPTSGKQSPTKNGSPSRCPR
reported.property: pIC50
The scale used: pIC50 is minus the common logarithm of the concentration in molar units.

Input: Entry under review: GRKKRRQRRRYAGQWGESV [L-TAT-GESV] . Reported pIC50?
Output: 5.07
